assay: viability loss in pontine glioma line – cell-based, SU-DIPG-XIII, MIPE4.0, CellTiter-Glo, qHTS, dose response (AID 1347061); conditions: CellTiter-Glo ATP luminescence;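 also: cells exposed to compound for 48 hours before readout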
Records with an inconclusive call do not appear. Active and inactive are the calls of the source. The limit is not given here; nearly all actives have AC50 up to about 37 µM.
Assay endpoint: AC50

Record excerpt, results attached:
>>> test_value("CO[C@H]1/C=C/O[C@@]2(C)Oc3c(C)c(O)c4c(O)c(c5c(c4c3C2=O)=NC2(CCN(CC(C)C)CC2)N=5)NC(=O)/C(C)=C/C=C/[C@H](C)[C@H](O)[C@@H](C)[C@@H](O)[C@@H](C)[C@H](OC(C)=O)[C@@H]1C")
"inactive"
>>> test_value("C1=C/COCc2cc(ccc2OCCN2CCCC2)Nc2nccc(n2)-c2cccc(c2)OCC/1")
"14.8 µM (active)"
>>> test_value("O=C(O)CO.[NH2-].[NH2-].[Pt+2]")
"inactive"
>>> test_value("CN(C)Cc1c(C(=O)NCCOc2ccc(C(=O)NO)cc2)oc2ccccc12")
"4.69 µM (active)"
>>> test_value("Cc1cc(Nc2nc(N[C@@H](C)c3ccc(F)cc3)c(C#N)cc2F)n[nH]1")
"20.9 µM (active)"
>>> test_value("CCOC(=O)N[C@@H]1CC[C@@H]2[C@@H](C1)C[C@H]1C(=O)O[C@H](C)[C@H]1[C@H]2/C=C/c1ccc(-c2cccc(F)c2)cn1")
"inactive"
>>> test_value("c1ccc2c(Oc3nc(Nc4ccc(N5CCOCC5)cc4)c4ncn(C5CCCCC5)c4n3)cccc2c1")
"inactive"
>>> test_value("Cc1c(-c2cccc3c(CCCOc4cccc5ccccc45)c(C(=O)O)n(Cc4cccnc4)c23)c(COc2ccc(N3CCN([S+](=O)([O-])N(C)C)CC3)cc2)nn1C")
"inactive"

Given `CCOc1cc2c(c(F)c1OCC)C(=N)N(CC(=O)c1cc(N3CCOCC3)c(OC)c(C(C)(C)C)c1)C2` , state its recorded AC50. 2.35 µM (active)

Here is the next molecule: `CCCCC(F)(F)[C@@]1(O)CC[C@H]2[C@@H](CC(=O)[C@@H]2CCCCCCC(=O)O)O1` inactive

###

test: viability loss in pontine glioma line – cell-based, SU-DIPG-XVII, MIPE5.0, CellTiter-Glo, qHTS, dose response (AID 1347060); conditions: CellTiter-Glo ATP luminescence;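 as to AC50: cells exposed to compound for 48 hours before viability readout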
Inconclusive results are not listed. Activity calls are given as the source filed them. No cut-off is given here; in the data, nearly all actives have AC50 up to about 26 µM.
Assay endpoint: AC50

Record excerpt, results attached:
>>> test_value("Cc1ccc(-n2nc(C(C)(C)C)cc2NC(=O)NCc2cc(F)ccc2Oc2ccc3c(cnn3CCO)c2)cc1")
"10.5 µM (active)"
>>> test_value("C=CC(=O)Nc1cccc(Oc2nc(Nc3ccc(N4CCN(C)CC4)cc3OC)ncc2Cl)c1")
"3.32 µM (active)"
>>> test_value("CN(C)c1ccc(C2Nc3ccc4ccccc4c3C3=C2C(=O)CC(C)(C)C3)cc1Br (stereo not drawn)")
"inactive"
>>> test_value("CC(=O)OCC(=O)[C@@]1(O)[C@H](C)C[C@H]2[C@@H]3C=C(C)C4=Cc5c(cnn5-c5ccccc5)C[C@]4(C)[C@H]3[C@@H](O)C[C@@]21C")
"20.9 µM (active)"
>>> test_value("COc1ccc(Cl)c(Nc2nc3ccccc3nc2NS(=O)(=O)c2cccc(NC(=O)C(C)(C)N)c2)c1")
"14.8 µM (active)"

Given `CC(C)NC(=O)N1CC[C@H](N=C2Nc3cc(F)ccc3N(CC(F)F)c3ccc(Cl)cc32)C1` , state its recorded AC50. inactive

Here is the next molecule: `COc1cc(Nc2nc3ccccc3nc2NS(=O)(=O)c2ccc(NC(=O)c3ccc(C)c(OC)c3)cc2)cc(OC)c1` inactive

Here is the next molecule: `CCC(=O)O[C@]1(C(=O)CO)CC[C@H]2[C@@H]3CCC4=CC(=O)CC[C@]4(C)[C@H]3CC[C@@]21C` inactive
